Form field: pIC50 (one value per entry).
- Assay system: Phosphatidylinositol 4,5-bisphosphate 3-kinase catalytic subunit beta isoform (Homo sapiens, UniProt P42338)
- Sequence (P42338 whole entry, canonical isoform): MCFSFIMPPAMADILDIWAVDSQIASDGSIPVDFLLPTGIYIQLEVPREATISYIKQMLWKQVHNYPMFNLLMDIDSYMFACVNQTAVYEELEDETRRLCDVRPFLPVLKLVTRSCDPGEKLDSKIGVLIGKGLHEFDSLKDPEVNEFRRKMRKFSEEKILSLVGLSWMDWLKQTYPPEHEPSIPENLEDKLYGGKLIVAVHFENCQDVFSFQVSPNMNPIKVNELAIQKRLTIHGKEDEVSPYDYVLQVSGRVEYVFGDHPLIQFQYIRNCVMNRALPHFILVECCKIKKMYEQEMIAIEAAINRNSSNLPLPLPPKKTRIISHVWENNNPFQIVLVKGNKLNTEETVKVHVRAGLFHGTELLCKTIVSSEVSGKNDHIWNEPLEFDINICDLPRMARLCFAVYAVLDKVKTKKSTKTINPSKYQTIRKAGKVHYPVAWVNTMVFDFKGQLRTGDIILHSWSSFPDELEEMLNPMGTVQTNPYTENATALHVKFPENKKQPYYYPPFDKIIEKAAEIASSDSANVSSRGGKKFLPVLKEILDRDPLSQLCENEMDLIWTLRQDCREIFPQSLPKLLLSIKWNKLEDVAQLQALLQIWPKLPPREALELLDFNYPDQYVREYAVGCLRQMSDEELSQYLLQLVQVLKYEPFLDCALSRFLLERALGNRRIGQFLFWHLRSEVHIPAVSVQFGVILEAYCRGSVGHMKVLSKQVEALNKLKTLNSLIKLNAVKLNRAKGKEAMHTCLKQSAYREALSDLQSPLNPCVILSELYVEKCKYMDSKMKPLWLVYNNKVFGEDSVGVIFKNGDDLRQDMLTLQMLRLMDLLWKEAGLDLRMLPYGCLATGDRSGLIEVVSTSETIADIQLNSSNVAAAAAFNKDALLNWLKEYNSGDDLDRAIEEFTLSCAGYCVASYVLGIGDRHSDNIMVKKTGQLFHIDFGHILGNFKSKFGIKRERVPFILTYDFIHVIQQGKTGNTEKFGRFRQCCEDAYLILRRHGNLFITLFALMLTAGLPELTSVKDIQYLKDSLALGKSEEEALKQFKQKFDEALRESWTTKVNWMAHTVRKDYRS
- Assay info: Inhibition of PI3Kbeta in human PC3 cells assessed as suppression of AKT phosphorylation at Ser473 after 60 mins by ELISA
- Type: cell-based, PC-3
# reply with the number alone; pIC50 is -log10 of concentration in mol/L

Cc1nc2c(N)cc(N3CCOCC3)nn2c1Cc1cccc(C(F)(F)F)c1C; 7.92
Cc1nc2c(N)cc(N3CCOCC3)nn2c1Nc1cccc(C(F)(F)F)c1CN1CCN(C)CC1; 7.68
Cc1nc2c(-c3cnc[nH]3)cc(N3CCOCC3)nn2c1Cc1cccc(C(F)(F)F)c1C; 7.23

Now look at this entry.
Data request, read-out pIC50, for Cc1c(Cc2c(CN(C)CCS(C)(=O)=O)nc3c(N)cc(N4CCOCC4)nn23)cccc1C(F)(F)F
7.47

---

Heads up, these compounds all have Kd values measured for Serine/threonine-protein kinase mTOR (Homo sapiens, UniProt P42345).
# unit: µM | format: bare number

Cc1c(Nc2c(CO)nc3c(N)cc(N4CCOC(CO)C4)nn23)cccc1C(F)(F)F (stereo in doubt; 66); 1.38
Cc1c(Nc2c(CO)nc3c(N)cc(N4CCOC(CO)C4)nn23)cccc1C(F)(F)F (stereo in doubt; 65); 0.355
Cc1nc2c(-c3cnc[nH]3)cc(N3CCOCC3)nn2c1Nc1cccc(C(F)(F)F)c1C; 4.68

Param readout= Kd; system= Serine/threonine-protein kinase mTOR (Homo sapiens, UniProt P42345); entry= Cc1nc2c(N)cc(N3CCOCC3)nn2c1Cc1cccc(C(F)(F)F)c1C ; returns value.
20.3

---

- Assay system: Phosphatidylinositol 4,5-bisphosphate 3-kinase catalytic subunit beta isoform (Homo sapiens, UniProt P42338)
- Assay info: Inhibition of PI3Kbeta in human PC3 cells assessed as suppression of AKT phosphorylation at Thr308 after 60 mins by ELISA
- Type: cell-based, PC-3
With a cut-off of 40 nM, any IC50 strictly below it is called t; any IC50 meeting it or above is called f.

Solved cases below.
Cc1c(Cc2c(CO)nc3c(C(=O)O)cc(N4CCOCC4)nn23)cccc1C(F)(F)F; f
Cc1nc2c(C(N)=O)cc(N3CCOCC3)nn2c1Cc1cccc(C(F)(F)F)c1C; f
Cc1nc2c(N)cc(N3CCOCC3)nn2c1Cc1cccc(C(F)(F)F)c1C; t
Cc1c(Nc2c(CO)nc3c(N)cc(N4CCOC(CO)C4)nn23)cccc1C(F)(F)F (stereo in doubt; 66); f
Cc1c(Nc2c(CO)nc3c(N)cc(N4CCOC(CO)C4)nn23)cccc1C(F)(F)F (stereo in doubt; 65); f

Find out if reported IC50 for Cc1nc2c(N)cc(N3CCOCC3)nn2c1Nc1cccc(C(F)(F)F)c1CN1CC(O)C1 is less than 40 nM
t

Find out if reported IC50 for Cc1nc2c(N)cc(N3CCOCC3)nn2c1Nc1cccc(C(F)(F)F)c1CN1CCN(C)CC1 is less than 40 nM
t

Find out if reported IC50 for Cc1nc2c(-c3cnc[nH]3)cc(N3CCOCC3)nn2c1Nc1cccc(C(F)(F)F)c1C is less than 40 nM
t

Find out if reported IC50 for CC(=O)NCc1nc2c(-c3cnc[nH]3)cc(N3CCOCC3)nn2c1Cc1cccc(C(F)(F)F)c1C is less than 40 nM
t

Find out if reported IC50 for Cc1nc2c(C(=O)O)cc(N3CCOCC3)nn2c1Cc1cccc(C(F)(F)F)c1C is less than 40 nM
f

Find out if reported IC50 for Cc1nc2c(-c3cnc[nH]3)cc(N3CCOCC3)nn2c1Nc1cccc(C(F)(F)F)c1CN1CC(O)C1 is less than 40 nM
t

Find out if reported IC50 for Cc1c(Cc2c(CNCCS(C)(=O)=O)nc3c(N)cc(N4CCOCC4)nn23)cccc1C(F)(F)F is less than 40 nM
f

Find out if reported IC50 for Cc1nc2c(-c3cnc[nH]3)cc(N3CCOCC3)nn2c1Cc1cccc(C(F)(F)F)c1C is less than 40 nM
f

---

- Assay system: Phosphatidylinositol 4,5-bisphosphate 3-kinase catalytic subunit alpha isoform (Homo sapiens, UniProt P42336)
- Sequence (P42336 whole entry, the tested form may be a part, canonical isoform): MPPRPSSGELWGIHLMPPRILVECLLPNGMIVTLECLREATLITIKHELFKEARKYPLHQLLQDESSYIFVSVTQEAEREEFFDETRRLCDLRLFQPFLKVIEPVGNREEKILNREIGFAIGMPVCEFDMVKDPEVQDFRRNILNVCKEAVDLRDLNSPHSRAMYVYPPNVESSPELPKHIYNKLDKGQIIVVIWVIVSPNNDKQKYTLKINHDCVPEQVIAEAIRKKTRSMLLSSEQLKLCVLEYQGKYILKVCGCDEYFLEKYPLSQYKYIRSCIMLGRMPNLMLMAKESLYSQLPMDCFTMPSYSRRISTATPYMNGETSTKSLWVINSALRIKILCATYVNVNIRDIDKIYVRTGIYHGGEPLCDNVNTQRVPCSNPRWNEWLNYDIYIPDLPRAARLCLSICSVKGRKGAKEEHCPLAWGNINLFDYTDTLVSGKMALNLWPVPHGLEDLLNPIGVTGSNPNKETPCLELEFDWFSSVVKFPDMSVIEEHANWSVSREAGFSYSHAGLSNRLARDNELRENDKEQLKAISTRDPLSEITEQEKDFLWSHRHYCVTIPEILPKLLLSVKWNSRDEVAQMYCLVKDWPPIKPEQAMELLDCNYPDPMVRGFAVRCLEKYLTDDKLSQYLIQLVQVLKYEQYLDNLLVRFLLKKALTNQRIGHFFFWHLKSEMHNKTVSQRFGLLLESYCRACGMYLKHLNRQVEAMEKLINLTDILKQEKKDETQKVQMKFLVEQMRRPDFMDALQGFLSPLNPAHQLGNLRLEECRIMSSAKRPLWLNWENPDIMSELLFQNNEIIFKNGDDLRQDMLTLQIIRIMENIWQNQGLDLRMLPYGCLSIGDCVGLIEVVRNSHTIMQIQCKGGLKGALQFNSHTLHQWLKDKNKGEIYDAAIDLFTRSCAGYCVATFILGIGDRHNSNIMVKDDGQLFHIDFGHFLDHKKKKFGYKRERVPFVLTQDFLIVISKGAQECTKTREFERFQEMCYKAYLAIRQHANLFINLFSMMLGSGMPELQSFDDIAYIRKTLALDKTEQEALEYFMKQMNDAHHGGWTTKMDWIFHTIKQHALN
- Assay info: Binding affinity to human PI3Kalpha (108 to 1068 residues) expressed in mammalian expression system by KINOMEscan assay
Form field: Kd (one value per entry).
# unit: µM | format: bare number

Cc1c(Nc2c(CO)nc3c(N)cc(N4CCOC(CO)C4)nn23)cccc1C(F)(F)F (stereo in doubt; 65); 6.61
Cc1nc2c(N)cc(N3CCOCC3)nn2c1Cc1cccc(C(F)(F)F)c1C; 5.13

Now look at this entry.
Data request, read-out Kd, for Cc1nc2c(-c3cnc[nH]3)cc(N3CCOCC3)nn2c1Nc1cccc(C(F)(F)F)c1C
0.912

---

- Assay system: Phosphatidylinositol 4,5-bisphosphate 3-kinase catalytic subunit gamma isoform (Homo sapiens, UniProt P48736)
- Sequence (P48736 whole entry, the tested form may be a part, canonical isoform): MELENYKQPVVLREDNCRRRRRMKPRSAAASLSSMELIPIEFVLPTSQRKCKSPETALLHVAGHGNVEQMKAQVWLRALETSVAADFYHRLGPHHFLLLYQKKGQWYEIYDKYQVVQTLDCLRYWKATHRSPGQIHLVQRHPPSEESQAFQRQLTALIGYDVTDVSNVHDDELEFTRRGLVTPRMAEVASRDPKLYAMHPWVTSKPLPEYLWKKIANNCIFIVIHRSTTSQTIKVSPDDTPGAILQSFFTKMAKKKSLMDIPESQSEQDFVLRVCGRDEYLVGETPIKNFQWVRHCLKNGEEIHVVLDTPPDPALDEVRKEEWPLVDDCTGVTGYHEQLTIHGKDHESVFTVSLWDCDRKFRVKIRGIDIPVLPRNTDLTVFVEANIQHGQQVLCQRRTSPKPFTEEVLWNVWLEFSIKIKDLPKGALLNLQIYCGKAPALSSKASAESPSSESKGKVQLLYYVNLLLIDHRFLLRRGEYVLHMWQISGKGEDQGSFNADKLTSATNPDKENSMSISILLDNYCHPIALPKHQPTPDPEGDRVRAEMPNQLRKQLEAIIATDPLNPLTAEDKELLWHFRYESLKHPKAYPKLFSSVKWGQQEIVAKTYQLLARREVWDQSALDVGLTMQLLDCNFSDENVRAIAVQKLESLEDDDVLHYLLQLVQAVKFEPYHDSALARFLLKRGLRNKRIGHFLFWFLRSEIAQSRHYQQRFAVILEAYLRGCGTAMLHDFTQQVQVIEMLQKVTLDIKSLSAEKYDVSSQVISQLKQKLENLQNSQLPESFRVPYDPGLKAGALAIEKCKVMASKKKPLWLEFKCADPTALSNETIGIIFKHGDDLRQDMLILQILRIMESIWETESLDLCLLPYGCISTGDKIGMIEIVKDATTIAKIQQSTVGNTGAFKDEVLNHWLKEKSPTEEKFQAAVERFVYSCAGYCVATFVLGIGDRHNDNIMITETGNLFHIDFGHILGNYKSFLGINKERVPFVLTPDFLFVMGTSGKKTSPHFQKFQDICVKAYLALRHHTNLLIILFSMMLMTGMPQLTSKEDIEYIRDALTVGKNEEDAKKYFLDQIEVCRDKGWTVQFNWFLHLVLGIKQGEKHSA
- Assay info: Binding affinity to human PI3Kgamma (144 to 1102 residues) expressed in mammalian expression system by KINOMEscan assay
Form field: pKd (one value per entry).
# reply with the number alone; pKd is -log10 of concentration in mol/L

Cc1nc2c(N)cc(N3CCOCC3)nn2c1Cc1cccc(C(F)(F)F)c1C; 4.94
Cc1nc2c(N)cc(N3CCOCC3)nn2c1Nc1cccc(C(F)(F)F)c1CN1CC(O)C1; 4.71

Data request, read-out pKd, for Cc1c(Nc2c(CO)nc3c(N)cc(N4CCOC(CO)C4)nn23)cccc1C(F)(F)F (stereo in doubt; 66)
4.87

---

Form field: Kd (one value per entry).
- Assay system: Phosphatidylinositol 4,5-bisphosphate 3-kinase catalytic subunit gamma isoform (Homo sapiens, UniProt P48736)
- Assay info: Binding affinity to human PI3Kgamma (144 to 1102 residues) expressed in mammalian expression system by KINOMEscan assay

Cc1c(Cc2c(CN(C)CCS(C)(=O)=O)nc3c(N)cc(N4CCOCC4)nn23)cccc1C(F)(F)F; > 30.2 µM
Cc1c(Nc2c(CO)nc3c(N)cc(N4CCOC(CO)C4)nn23)cccc1C(F)(F)F (stereo in doubt; 65); 0.692 µM
CC(=O)NCc1nc2c(-c3cnc[nH]3)cc(N3CCOCC3)nn2c1Cc1cccc(C(F)(F)F)c1C; > 30.2 µM
Cc1nc2c(-c3cnc[nH]3)cc(N3CCOCC3)nn2c1Nc1cccc(C(F)(F)F)c1C; 2.29 µM
Cc1nc2c(C(N)=O)cc(N3CCOCC3)nn2c1Cc1cccc(C(F)(F)F)c1C; > 30.2 µM

Now look at this entry.
Data request, read-out Kd, for Cc1c(Cc2c(CO)nc3c(N)cc(N4CCOCC4)nn23)cccc1C(F)(F)F
> 10 µM

---

- Assay system: Phosphatidylinositol 4,5-bisphosphate 3-kinase catalytic subunit delta isoform (Homo sapiens, UniProt O00329)
- Sequence (O00329 whole entry, the tested form may be a part, canonical isoform): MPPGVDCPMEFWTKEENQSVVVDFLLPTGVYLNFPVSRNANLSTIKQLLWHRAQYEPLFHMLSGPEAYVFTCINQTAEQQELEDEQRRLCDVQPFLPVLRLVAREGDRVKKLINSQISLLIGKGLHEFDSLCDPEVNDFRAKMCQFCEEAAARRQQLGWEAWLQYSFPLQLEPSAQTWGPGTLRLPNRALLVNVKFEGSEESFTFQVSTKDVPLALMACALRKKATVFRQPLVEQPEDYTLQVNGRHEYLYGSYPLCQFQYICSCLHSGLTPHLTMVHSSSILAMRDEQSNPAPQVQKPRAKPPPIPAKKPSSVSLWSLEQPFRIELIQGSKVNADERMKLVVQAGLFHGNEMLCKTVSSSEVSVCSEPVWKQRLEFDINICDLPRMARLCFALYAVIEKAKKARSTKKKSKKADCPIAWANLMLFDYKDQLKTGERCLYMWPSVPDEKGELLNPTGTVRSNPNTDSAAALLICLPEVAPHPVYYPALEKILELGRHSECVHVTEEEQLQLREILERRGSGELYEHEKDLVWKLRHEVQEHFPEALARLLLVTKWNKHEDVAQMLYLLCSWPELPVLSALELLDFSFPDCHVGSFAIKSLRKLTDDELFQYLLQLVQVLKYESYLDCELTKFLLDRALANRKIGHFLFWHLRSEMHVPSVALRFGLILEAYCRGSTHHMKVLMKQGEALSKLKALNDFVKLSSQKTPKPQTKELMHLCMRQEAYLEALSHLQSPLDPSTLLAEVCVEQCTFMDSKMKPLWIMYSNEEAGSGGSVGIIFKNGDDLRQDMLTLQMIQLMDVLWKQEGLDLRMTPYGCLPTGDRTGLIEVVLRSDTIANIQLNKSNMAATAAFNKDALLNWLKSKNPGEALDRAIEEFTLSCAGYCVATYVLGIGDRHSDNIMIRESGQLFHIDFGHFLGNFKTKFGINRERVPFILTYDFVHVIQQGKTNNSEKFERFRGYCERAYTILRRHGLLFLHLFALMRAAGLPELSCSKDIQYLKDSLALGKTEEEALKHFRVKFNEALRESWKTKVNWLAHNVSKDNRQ
- Assay info: Binding affinity to human PI3Kdelta (108 to 1044 residues) expressed in mammalian expression system by KINOMEscan assay
Attribute measured: pKd
# reply with the number alone; pKd is -log10 of concentration in mol/L

Cc1c(Nc2c(CO)nc3c(N)cc(N4CCOC(CO)C4)nn23)cccc1C(F)(F)F (stereo in doubt; 65); 6.86
CC(=O)NCc1nc2c(-c3cnc[nH]3)cc(N3CCOCC3)nn2c1Cc1cccc(C(F)(F)F)c1C; 7.23
Cc1nc2c(N)cc(N3CCOCC3)nn2c1Cc1cccc(C(F)(F)F)c1C; 6.77
Cc1nc2c(N)cc(N3CCOCC3)nn2c1Nc1cccc(C(F)(F)F)c1CN1CC(O)C1; 7.14
Cc1nc2c(-c3cnc[nH]3)cc(N3CCOCC3)nn2c1Nc1cccc(C(F)(F)F)c1C; 7.31

Now look at this entry.
Data request, read-out pKd, for Cc1c(Nc2c(CO)nc3c(N)cc(N4CCOC(CO)C4)nn23)cccc1C(F)(F)F (stereo in doubt; 66)
4.96

---

- Assay system: Phosphatidylinositol 4,5-bisphosphate 3-kinase catalytic subunit beta isoform (Homo sapiens)
- Assay info: Inhibition of PI3Kbeta in human PC3 cells assessed as suppression of AKT phosphorylation at Ser473 after 60 mins by ELISA
- Type: cell-based, PC-3
Attribute measured: pIC50
# reply with the number alone; pIC50 is -log10 of concentration in mol/L

Data request, read-out pIC50, for Cc1nc2c(C(N)=O)cc(N3CCOCC3)nn2c1Cc1cccc(C(F)(F)F)c1C
6.30

Data request, read-out pIC50, for Cc1nc2c(N)cc(N3CCOCC3)nn2c1Nc1cccc(C(F)(F)F)c1CN1CC(O)C1
7.36

Data request, read-out pIC50, for Cc1nc2c(-c3cnc[nH]3)cc(N3CCOCC3)nn2c1Nc1cccc(C(F)(F)F)c1C
7.92

Data request, read-out pIC50, for Cc1c(Nc2c(CO)nc3c(N)cc(N4CCOC(CO)C4)nn23)cccc1C(F)(F)F (stereo in doubt; 65)
7.10

Data request, read-out pIC50, for Cc1nc2c(C(=O)O)cc(N3CCOCC3)nn2c1Cc1cccc(C(F)(F)F)c1C
6.29

Data request, read-out pIC50, for CC(=O)NCc1nc2c(-c3cnc[nH]3)cc(N3CCOCC3)nn2c1Cc1cccc(C(F)(F)F)c1C
7.48

Data request, read-out pIC50, for Cc1nc2c(-c3cnc[nH]3)cc(N3CCOCC3)nn2c1Nc1cccc(C(F)(F)F)c1CN1CC(O)C1
6.76

Data request, read-out pIC50, for Cc1c(Cc2c(CNCCS(C)(=O)=O)nc3c(N)cc(N4CCOCC4)nn23)cccc1C(F)(F)F
6.86
